The measured values listed here are drawn from patent US7226992B1.

biological target: mutant Bcl-2/iso1 protein (Bcl-2/iso1 residues 1-34, Bcl-xL loop residues 29-44, Bcl-2/iso1 residues 92-207; plasmid C) (human); experiment: competitive fluorescence polarization, displacement of a fluorescein-labeled peptide probe from Bcl-2 (340 nM)
readout.kind: Kd (nM)

[[record]]
binder = "NLWAAQRYGRELRRMSDEFVDAFKK [peptide … (SEQ ID NO:26)]"
units = "nM"
number = 26

[[record]]
binder = "NLWAAQRYGRELRRMSDEFVDSFAK [peptide … (SEQ ID NO:28)]"
units = "nM"
number = 123

[[record]]
binder = "AAAAAQRYGRELRRMSDEFVDSFKK [peptide … (SEQ ID NO:17), not labeled]"
units = "nM"
number = 74

[[record]]
binder = "NAWAAQRYGRELRRMSDEFVDSFKK [peptide … (SEQ ID NO:22)]"
units = "nM"
number = 75

